System: THP-1 cells
Assay info: hTHP-1 assay: gramicidin-stimulated IL-1β detection in PMA-treated THP-1 cells
Assay type: cell-based, human
Measurement conditions: Table B2; 10% FBS; class symbol
Readout kind: IC50

The following compounds have reported results that may help.
* NS(=O)(=NC(=O)Nc1c2c(nc3c1CCC3)CCC2)c1ccn(C2CC2)n1 (single isomer, unassigned) [Example 886] | 200 to 1000 nM
* C[C@@H]1CCc2c1nc1c(c2NC(=O)N=S(N)(=O)c2ccn(C3CC3)n2)CCC1 (single isomer, unassigned) [Example 889] | 1000 to 5000 nM
* NS(=O)(=NC(=O)Nc1c2c(nc3c1CCC3)CCC2)c1ccn(C2CC2)n1 (single isomer, unassigned) [Example 887] | 5000 to 30000 nM
* NS(=O)(=NC(=O)Nc1c2c(nc(C3CC3)c1C1CC1)CCC2)c1ccn(C2CC2)n1 (single isomer, unassigned) [Example 879] | 1000 to 5000 nM

Shifting focus to the compound that follows.
Lab note: compound C[C@@H](O)Cn1cc(F)c(S(N)(=O)=NC(=O)Nc2c3c(nc4c2CCC42CC2)CCC3)n1 (single isomer, unassigned) [Example 893] tested on THP-1 cells; recorded IC50 was 200 to 1000 nM

---

Test system: THP-1 cells
Assay info: hTHP-1 assay: gramicidin-stimulated IL-1β detection in PMA-treated THP-1 cells
Format: cell-based, human
Measurement conditions: Homo sapiens, THP-1, Table B1; 2% fetal bovine serum; numeric value; read-out: hTHP-1 IC50
Readout kind: IC50 (nM)

• CC(C)(O)c1nc(CO)c(S(=O)(=NC(=O)Nc2c3c(nc4c2CCC4(C)C)CCC3)NC#N)s1 (single isomer, unassigned) = 112

P = CC(C)c1cc(C#N)cc(C(C)C)c1NC(=O)N=S(=O)(NC#N)c1sc(C(C)(C)O)nc1CO (single isomer, unassigned)
Q = CC(C)(O)c1nc(CO)c([S@](=O)(=NC(=O)Nc2c3c(nc4c2CCC4(C)C)CCC3)NC#N)s1
## Task // pick min by IC50: P , Q Lab note: record the label of whichever item you select.
## Result P
(P: 79.2 nM, Q: 419 nM)

---

Test system: THP-1 cells
Assay info: hTHP-1 assay: gramicidin-stimulated IL-1β detection in PMA-treated THP-1 cells
Type: cell-based, human
Measurement conditions: Table B2; 10% FBS; class symbol
Readout kind: IC50

The following compounds have reported results that may help.
* Cc1c(C(F)(F)F)nc2c(c1NC(=O)N=S(N)(=O)c1ccn(C3CC3)n1)CCC2 (single isomer, unassigned) [Example 891] | 5000 to 30000 nM
* NS(=O)(=NC(=O)Nc1c2c(nc(C(F)(F)F)c1C1CC1)CCC2)c1nn(C2CC2)cc1F (single isomer, unassigned) [Example 881] | 1000 to 5000 nM
* NS(=O)(=NC(=O)Nc1c2c(nc3c1CCC31CC1)CCC2)c1ccn(C2CC2)n1 (single isomer, unassigned) [Example 884] | 40 to 200 nM
* NS(=O)(=NC(=O)Nc1c2c(nc(C3CC3)c1C1CC1)CCC2)c1nn(C2CC2)cc1F (single isomer, unassigned) [Example 883] | 1000 to 5000 nM
* NS(=O)(=NC(=O)Nc1c2c(nc(C3CC3)c1C1CC1)CCC2)c1ccn(C2CC2)n1 (single isomer, unassigned) [Example 878] | 40 to 200 nM

Sample C[C@@H]1CCc2c1nc1c(c2NC(=O)N=S(N)(=O)c2ccn(C3CC3)n2)CCC1 (single isomer, unassigned) [Example 888] ; IC50 observed: 40 to 200 nM

Sample C[C@@H](O)Cn1cc(F)c(S(N)(=O)=NC(=O)Nc2c3c(nc4c2CCC42CC2)CCC3)n1 (single isomer, unassigned) [Example 892] ; IC50 observed: 8 to 40 nM

Sample C[C@H](O)Cn1cc(F)c(S(N)(=O)=NC(=O)Nc2c3c(nc4c2CCC42CC2)CCC3)n1 (single isomer, unassigned) [Example 896] ; IC50 observed: 8 to 40 nM
